# ASSAY: inhibitors of the yeast RAM network, pilot screen, dse1pr::URA3 reporter, 5-FOA selection (AID 869);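 note: 0% = DMSO wells with no growth and 100% = 10 µM 1-NA-PP1 with full growth; RAM network block rescues cells from 5-FOA so hits raise OD615 growth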
# TEST_CONTEXT: S. cerevisiae dse1pr::URA3 5-FOA growth, OD615, 2 d; at 10 µM; stronger effect = higher value; strain carries analog-sensitive mutant Cbk1 kinase
Below is a list of entries, each paired with its recorded inhibition value.
Write the value in % as a bare number.

// worked examples, inhibition included
COMPOUND: CN(C)S(=O)(=O)N1CCC(Cc2ccccc2)CC1
inhibition [%]: -0.275
//
COMPOUND: CC(=O)c1cccc(NC(=O)c2cc3ccccn3n2)c1
inhibition [%]: 0.705
//
COMPOUND: COc1ccc(Cl)cc1N(CC(=O)Nc1ccc2c(c1)OCO2)S(C)(=O)=O
inhibition [%]: 0.79
//
COMPOUND: O=C(Cc1cccs1)NCCn1ccc2ccccc21
inhibition [%]: 0.32
//
COMPOUND: CCCNC(=O)C1CC(=O)N(c2ccc(OCC(=O)Nc3cccc(C)c3C)cc2)C1 (stereo not drawn)
inhibition [%]: 2.35
//
COMPOUND: CCCSc1nnc(Cn2c(=O)sc3ccccc32)n1-c1ccccc1
inhibition [%]: 3.3
//
COMPOUND: CC1c2[nH]c3ccccc3c2CCN1S(C)(=O)=O (stereo not drawn)
inhibition [%]: 0.31
//
COMPOUND: O=C(Nc1ccc(OC(F)(F)F)cc1)c1cnc2n(c1=O)CCS2
inhibition [%]: 3.13

Prompt: Entry under review: O=C(CCC1CCCC1)N1CCN(C(=O)c2ccco2)CC1 . Reported inhibition?
Completion: 1.39

Prompt: Requested field: inhibition. Item: CS(=O)(=O)N1CCN(Cc2ccccc2C(F)(F)F)CC1
Completion: -0.185

Prompt: Fill in the blank: the reported inhibition of CCCCCOc1ccc(NC(=O)CCCC(=O)O)cc1 is ____.
Completion: -0.545

Prompt: Requested read-out: inhibition. Entry: COc1ccc(C(=O)Nc2ccc(Cl)cc2C(=O)NCc2ccco2)cc1OC
Completion: 0.625

Prompt: Dear colleague, I am looking for the recorded inhibition of the following compound: CC(=O)N1CCN(CCN=CC2=C(O)CC(c3ccc(Cl)cc3)CC2=O)CC1 (stereo not drawn)
Completion: 1.2

* * *

# ASSAY: RAM signaling pathway blockade in yeast – S. cerevisiae, Pdr1DBD-CYC8 efflux-inhibited sensitized strain, primary screen (AID 1298);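 note: 0% = DMSO untreated cells without growth and 100% = 10 µM 1-NA-PP1 full growth; higher means more yeast growth rescued from 5-FOA killing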
# TEST_CONTEXT: S. cerevisiae cbk1-as DSE1-URA3 strain, 5-FOA growth OD615, 2 d; at 50 µM; stronger effect = higher value
READOUT_LABEL: RAM network inhibition (%)
State the answer as a number, implicitly in %.

MOLECULE: O=C(Cn1nc(Cc2cccnc2)c2ccccc2c1=O)N1CCN(c2ccccn2)CC1
UNIT_ABBREVIATION: %
RAM network inhibition: -0.56
//
MOLECULE: O=S(=O)(NCc1ccc2c(c1)OCO2)c1cnc[nH]1
UNIT_ABBREVIATION: %
RAM network inhibition: 0.72
//
MOLECULE: CCOCCCNC(=O)Cn1nc(-c2ccccc2)ccc1=O
UNIT_ABBREVIATION: %
RAM network inhibition: -0.58

Prompt: Can you share its RAM network inhibition? I mean this molecule: O=C(Nc1nc(-c2ccccn2)cs1)c1ccc(Cl)s1
Completion: -2.58

Prompt: Given the entry CC1CCN(c2nc3c(c(=O)n(C)c(=O)n3C)n2CCSc2ncccn2)CC1 , report its measured RAM network inhibition.
Completion: 2.44

Prompt: For the molecule shown here, Cc1ccc(C(c2sc3nc(C)nn3c2O)N2CCN(CCO)CC2)cc1 (stereo unspecified) , give the reported RAM network inhibition.
Completion: 4.52

Prompt: Which RAM network inhibition value belongs to C=C(C)CSc1nnc(-c2cc(OC)c(OC)c(OC)c2)n1N ?
Completion: 4

Prompt: Find the recorded RAM network inhibition belonging to Cc1c(C(=O)N2CCN(CCc3ccccc3)CC2)oc2ccccc12 and report it.
Completion: 1.34

Prompt: Look at this molecule and give its reported RAM network inhibition. CCC(C)NC(=O)C(Cc1ccccc1)n1cccc1 (stereo unspecified)
Completion: 3

Prompt: Quick one: RAM network inhibition of O=S(=O)(c1ccc(Oc2ccc(S(=O)(=O)N3CCOCC3)cc2)cc1)N1CCOCC1 ?
Completion: 4.04

Prompt: Given the molecule O=C1CNC(=O)/C1=C\N1CCN(C(c2ccccc2)c2ccccc2)CC1 , what is its reported RAM network inhibition?
Completion: 1.6
